Measured remaining activity at 10 µM accompanies every entry in the list below.
biological target: IGF-1R (Homo sapiens, UniProt P08069); assay: Kinase panel: IGF-1R; assay type: biochemical, human/mammalian; details: compound at 10 μM, read-out: % of activity respect of the control
Sequence (P08069 31-1367): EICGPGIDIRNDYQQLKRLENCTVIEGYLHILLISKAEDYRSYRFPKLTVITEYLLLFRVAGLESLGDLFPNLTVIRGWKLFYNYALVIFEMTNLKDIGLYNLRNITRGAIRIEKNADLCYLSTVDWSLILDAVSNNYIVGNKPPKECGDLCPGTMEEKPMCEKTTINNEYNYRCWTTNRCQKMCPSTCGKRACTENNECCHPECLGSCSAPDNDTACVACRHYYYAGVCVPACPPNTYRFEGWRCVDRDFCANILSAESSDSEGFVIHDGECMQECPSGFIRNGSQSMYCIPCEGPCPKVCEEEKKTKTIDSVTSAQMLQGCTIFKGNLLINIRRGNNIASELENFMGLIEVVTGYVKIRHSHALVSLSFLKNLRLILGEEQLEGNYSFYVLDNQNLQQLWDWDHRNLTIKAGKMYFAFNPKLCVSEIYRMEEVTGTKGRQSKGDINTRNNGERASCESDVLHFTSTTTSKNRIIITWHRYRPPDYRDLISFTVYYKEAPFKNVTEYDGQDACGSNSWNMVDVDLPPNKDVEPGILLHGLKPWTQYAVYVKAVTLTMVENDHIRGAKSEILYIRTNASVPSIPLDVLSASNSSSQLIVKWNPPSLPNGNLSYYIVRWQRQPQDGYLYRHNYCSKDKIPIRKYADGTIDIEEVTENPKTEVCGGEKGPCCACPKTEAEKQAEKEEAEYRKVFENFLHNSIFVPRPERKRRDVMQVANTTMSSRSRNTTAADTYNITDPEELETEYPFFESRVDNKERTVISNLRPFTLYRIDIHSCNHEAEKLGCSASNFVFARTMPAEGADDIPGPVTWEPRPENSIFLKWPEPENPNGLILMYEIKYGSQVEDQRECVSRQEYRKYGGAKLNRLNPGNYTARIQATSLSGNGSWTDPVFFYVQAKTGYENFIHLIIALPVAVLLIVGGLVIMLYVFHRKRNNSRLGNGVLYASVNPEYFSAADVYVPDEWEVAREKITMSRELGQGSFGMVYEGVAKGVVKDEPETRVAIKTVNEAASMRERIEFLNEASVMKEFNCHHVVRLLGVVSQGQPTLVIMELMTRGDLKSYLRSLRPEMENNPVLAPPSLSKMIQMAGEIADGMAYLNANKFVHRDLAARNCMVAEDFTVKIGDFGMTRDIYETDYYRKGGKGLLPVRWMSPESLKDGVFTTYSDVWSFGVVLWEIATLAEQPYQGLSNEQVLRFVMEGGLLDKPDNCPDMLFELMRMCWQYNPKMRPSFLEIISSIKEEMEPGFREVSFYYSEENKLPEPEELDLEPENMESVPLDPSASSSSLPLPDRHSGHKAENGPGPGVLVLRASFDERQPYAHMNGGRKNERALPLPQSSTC

MOLECULE: C[C@H](c1ccccc1)n1c(=O)[nH]c2ncc(-c3ccccc3)nc21
remaining activity at 10 µM / %: 112
--
MOLECULE: O=c1[nH]c2ncc(-c3ccc(F)cc3)nc2n1CC1CC1
remaining activity at 10 µM / %: 85
--
MOLECULE: CC(c1ccccc1)n1c(=O)[nH]c2ncc(-c3ccc(F)cc3)nc21 (stereo not shown)
remaining activity at 10 µM / %: 122
--
MOLECULE: O=c1[nH]c2ncc(-c3ccc(F)cc3)nc2n1C1CCCCC1
remaining activity at 10 µM / %: 100
